pKd for assorted binders
Target: T1, EsCas13d, nuclease-dead (Eubacterium siraeum, UniProt B0MS50, R295A;H300A;R849A;H854A)
T1 sequence: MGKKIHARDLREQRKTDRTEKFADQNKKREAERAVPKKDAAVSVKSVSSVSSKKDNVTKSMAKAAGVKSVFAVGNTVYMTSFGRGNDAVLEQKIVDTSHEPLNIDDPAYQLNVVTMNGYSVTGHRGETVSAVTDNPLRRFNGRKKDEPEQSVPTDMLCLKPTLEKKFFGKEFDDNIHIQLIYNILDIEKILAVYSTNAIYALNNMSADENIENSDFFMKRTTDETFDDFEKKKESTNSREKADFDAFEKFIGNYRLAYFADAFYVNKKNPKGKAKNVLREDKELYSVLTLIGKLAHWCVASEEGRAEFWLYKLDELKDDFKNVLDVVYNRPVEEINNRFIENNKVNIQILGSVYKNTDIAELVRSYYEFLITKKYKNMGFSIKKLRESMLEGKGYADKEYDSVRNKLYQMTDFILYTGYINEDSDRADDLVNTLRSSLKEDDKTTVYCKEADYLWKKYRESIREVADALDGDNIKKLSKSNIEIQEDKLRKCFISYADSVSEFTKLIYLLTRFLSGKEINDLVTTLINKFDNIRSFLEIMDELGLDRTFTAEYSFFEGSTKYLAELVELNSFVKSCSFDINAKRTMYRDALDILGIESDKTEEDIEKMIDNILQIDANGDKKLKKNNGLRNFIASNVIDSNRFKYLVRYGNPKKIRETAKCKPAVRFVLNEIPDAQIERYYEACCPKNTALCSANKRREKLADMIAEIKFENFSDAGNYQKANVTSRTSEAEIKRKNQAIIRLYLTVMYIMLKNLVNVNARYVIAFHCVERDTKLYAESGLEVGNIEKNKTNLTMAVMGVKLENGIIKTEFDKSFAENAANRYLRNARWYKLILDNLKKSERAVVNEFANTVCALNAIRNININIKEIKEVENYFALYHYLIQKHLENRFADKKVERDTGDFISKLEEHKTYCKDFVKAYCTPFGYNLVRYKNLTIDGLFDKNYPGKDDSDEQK
Experiment: crRNA (strand 1, pre-loaded); Mg2+; 40 mM Tris-HCl pH 7.5, 150 mM NaCl, 6 mM MgCl2, 1 mM DTT, 0.1% Tween-20, 0.2 mg/ml BSA; 25 C; 10 min per concentration, then washed
Settings: tags: His6-TwinStrep-SUMO cleaved; N-terminal SNAP kept (SNAP-Surface 488); label: 3' end held by stalled T7 RNA polymerase
Friendly reminder that pKd comes from taking -log10 of the concentration in mol/L.

{"columns": ["BINDER", "pKd"],
 "data": [
  ["target 1 A16G,C21A (mixed) RNA 1: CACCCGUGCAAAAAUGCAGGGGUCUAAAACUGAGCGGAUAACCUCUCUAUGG RNA 2: GGGAAUGGAUCCACAUCUACGAAUUCGUACAAUAGGGAGGUUAUCCGCUCACCGAGAUCGGAAGAGCACACGU", 7.32],
  ["target 1 insA 3' of 15,insA 3' of 11 (mixed) RNA 1: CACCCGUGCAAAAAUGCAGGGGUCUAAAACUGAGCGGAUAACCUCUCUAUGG RNA 2: GGGAAUGGAUCCACAUCUACGAAUUCGUACCAUAGAGAAGGUAUAUCCGCUCACCGAGAUCGGAAGAGCACACGU", 7.83],
  ["target 1 C6U,U11A (mixed) RNA 1: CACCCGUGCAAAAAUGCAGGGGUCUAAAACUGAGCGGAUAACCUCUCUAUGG RNA 2: GGGAAUGGAUCCACAUCUACGAAUUCGUACCAUAGAGAGGAUAUCUGCUCACCGAGAUCGGAAGAGCACACGU", 7.42],
  ["target 2 MT 5'PFS CAU 3'PFS UAC (mixed) RNA 1: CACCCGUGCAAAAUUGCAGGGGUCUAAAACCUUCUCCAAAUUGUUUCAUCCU RNA 2: GGGAAUGGAUCCACAUCUACGAAUUCCAUAGGAUGAAACAAUUUGGAGAAGUACAGAUCGGAAGAGCACACGU", 8.43],
  ["target 1 insG 3' of 16,insG 3' of 1 (mixed) RNA 1: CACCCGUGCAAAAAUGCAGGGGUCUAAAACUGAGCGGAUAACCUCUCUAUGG RNA 2: GGGAAUGGAUCCACAUCUACGAAUUCGUACCAUAGAGGAGGUUAUCCGCUCAGCCGAGAUCGGAAGAGCACACGU", 7.89]
]}

// pKd lookup, binder = target 1 U3G,U11C (mixed) RNA 1: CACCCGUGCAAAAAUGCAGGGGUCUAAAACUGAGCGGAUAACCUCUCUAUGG RNA 2: GGGAAUGGAUCCACAUCUACGAAUUCGUACCAUAGAGAGGCUAUCCGCGCACCGAGAUCGGAAGAGCACACGU , result: 8.00

// pKd lookup, binder = target 2 MT 5'PFS AAU 3'PFS UCG (mixed) RNA 1: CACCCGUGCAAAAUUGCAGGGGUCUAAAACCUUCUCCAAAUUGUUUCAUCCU RNA 2: GGGAAUGGAUCCACAUCUACGAAUUCAAUAGGAUGAAACAAUUUGGAGAAGUCGAGAUCGGAAGAGCACACGU , result: 8.19

// pKd lookup, binder = target 1 insU 3' of 18,insG 3' of 6 (mixed) RNA 1: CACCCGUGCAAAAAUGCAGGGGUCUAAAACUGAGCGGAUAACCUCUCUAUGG RNA 2: GGGAAUGGAUCCACAUCUACGAAUUCGUACCAUAUGAGAGGUUAUCCGGCUCACCGAGAUCGGAAGAGCACACGU , result: 7.48

// pKd lookup, binder = target 1 insU 3' of 12,insA 3' of 7 (mixed) RNA 1: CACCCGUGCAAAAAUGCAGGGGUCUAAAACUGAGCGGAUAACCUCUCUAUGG RNA 2: GGGAAUGGAUCCACAUCUACGAAUUCGUACCAUAGAGAGGUUUAUCACGCUCACCGAGAUCGGAAGAGCACACGU , result: 8.27

// pKd lookup, binder = target 2 MT 5'PFS AAC 3'PFS UAA (mixed) RNA 1: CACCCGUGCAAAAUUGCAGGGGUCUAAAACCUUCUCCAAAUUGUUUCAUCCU RNA 2: GGGAAUGGAUCCACAUCUACGAAUUCAACAGGAUGAAACAAUUUGGAGAAGUAAAGAUCGGAAGAGCACACGU , result: 8.13

// pKd lookup, binder = target 1 insU 3' of 7,insU 3' of 5 (mixed) RNA 1: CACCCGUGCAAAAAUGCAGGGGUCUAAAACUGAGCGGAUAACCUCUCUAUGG RNA 2: GGGAAUGGAUCCACAUCUACGAAUUCGUACCAUAGAGAGGUUAUCUCGUCUCACCGAGAUCGGAAGAGCACACGU , result: 7.84
